ASSAY NAME: compound effects on lung adenocarcinoma cell viability – A549, calcein-AM fluorescence, 48 h, basal, profiling panel (AID 1162); note: test concentration not given here
COND: higher = more signal
Reported z-score values for the following compounds.
MEASURED PROPERTY: z-score

# COMPOUND, MEASURED PROPERTY, EXPERIMENTAL RESULT
data = [
    ("O=C1O[C@H](c2ccccc2)[C@H](c2ccccc2)N2[C@H]1[C@@H](C(=O)N1CCCCCCC1)[C@]1(C(=O)Nc3ccccc31)[C@H]2c1ccc(O)cc1", "z-score", 0.416),
    ("CCCC[C@@H](O)C1=C(COc2ccccc2)Cn2c(=O)n(-c3ccccc3)c(=O)n2[C@H]1CO", "z-score", 0.753),
    ("Cc1ccc(S[C@]2(C(=O)NCc3ccccc3)CC(=O)N(C3Cc4ccccc4C3)[C@@H]2c2ccc(CO)cc2I)cc1", "z-score", 1.38),
    ("CN(C)CCCCCCNC(=O)[C@@H]1C[C@@H]2C(=O)NCC(=O)N2[C@@H]1c1ccc(O)cc1", "z-score", -0.627),
    ("OCCCC1=CC(c2cccs2)N(Cc2cccc(OC(F)(F)F)c2)CC1 (stereo not drawn)", "z-score", -0.686),
    ("COC(=O)[C@@]1(Cc2ccc(F)cc2)[C@H]2c3cc(C(=O)N(C)C)n(Cc4ccc(C)c(F)c4F)c3C[C@H]2CN1C(=O)c1ccccc1", "z-score", 0.674),
    ("CCCCC(=C=CC[C@H](O)c1ccccc1OCCO)C[C@H](O)c1ccccn1", "z-score", 0.747),
    ("COc1cc(C(O)C2C=CC3C(=O)NC(=O)C3N2Nc2ccc(Cl)cc2Cl)cc(OC)c1OC (stereo not drawn)", "z-score", -0.797),
]

###

TARGET: Dickkopf-related protein 1 (Homo sapiens) (UniProt O94907)
Sequence (O94907 whole entry, looked up): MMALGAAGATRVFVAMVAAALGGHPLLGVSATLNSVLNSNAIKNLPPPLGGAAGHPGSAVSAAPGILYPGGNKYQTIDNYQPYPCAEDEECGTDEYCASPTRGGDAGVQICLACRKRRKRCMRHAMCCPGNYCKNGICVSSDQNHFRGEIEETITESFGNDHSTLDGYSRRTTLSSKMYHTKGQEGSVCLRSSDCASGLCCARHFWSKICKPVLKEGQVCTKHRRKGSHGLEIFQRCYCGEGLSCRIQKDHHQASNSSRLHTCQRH
ASSAY NAME: small molecules binding DKK1 protein – biochemical, small-molecule microarray, 635 nm fluorescence scan, primary screen (AID 1106);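 note: score merges emission near 667 nm with signal to noise over three replicate slides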
COND: higher = more signal
Examples of compounds with documented composite z-score follow.
MEASURED PROPERTY: composite z-score

# COMPOUND, EXPERIMENTAL RESULT
measured = [
    ("C[C@H]1ON(c2ccccc2)[C@@H](c2ccccc2)[C@@H]1C(=O)N1C(=O)OC[C@@H]1c1ccccc1", 0.289),
    ("Cc1ccccc1C(O)C1C=CC2C(=O)N(Cc3ccccc3)C(=O)C2N1n1cnnc1 (stereo not given)", 0.189),
    ("C=CCNC(=O)[C@H]1[C@@H]2C(=O)O[C@@H](c3ccccc3)[C@@H](c3ccccc3)N2[C@@H](c2ccc(O)cc2)[C@]12C(=O)N(C(=O)OCCOC)c1ccc(C#CC3(O)CCCCCC3)cc12", 0.138),
    ("COc1cc2c(cc1OC)CN(C(=O)[C@@H]1[C@H]3C(=O)O[C@H](c4ccccc4)[C@H](c4ccccc4)N3[C@H](c3ccc(O)cc3)[C@@]13C(=O)Nc1ccc(C#CCNC(N)=O)cc13)CC2", -0.162),
    ("COCCCNC(=O)[C@@H]1c2ccccc2C(=O)N(c2ccc(C)cn2)[C@H]1c1ccc(CO)cc1", -1.42),
    ("COC(=O)[C@@]1(Cc2ccc(F)cc2)[C@H]2c3cc(C(=O)N(C)C)n(CCSCCO)c3C[C@H]2CN1C(=O)c1ccccc1", -0.0642),
    ("O=C1NC(=O)C2C1C=CC(C(O)c1ccc3c(c1)OCO3)N2Nc1ccc(Cl)cc1Cl (stereo not given)", -0.278),
    ("Cc1cc(C)c(C(O)C2C=CC3C(=O)N(c4ccccc4)C(=O)C3N2Nc2ccccc2)c(C)c1 (stereo not given)", -0.167),
    ("CO[C@H]1O[C@H](CO)[C@@H](OC(=O)Nc2cccc(F)c2)[C@H](OC(=O)Nc2ccc3c(c2)OCO3)[C@H]1OC(=O)Nc1ccc2c(c1)OCO2", 0.177),
    ("Cc1ccc(S[C@]2(C(=O)O)CC(=O)N(C3CCCCC3)[C@@H]2c2ccc(CO)cc2)cc1", 0.234),
    ("CCCNC(=O)[C@@]1(Sc2ccc(C)cc2)CC(=O)N(Cc2ccccc2)[C@@H]1c1ccc(CO)cc1I", 0.353),
    ("C[C@]12C(=O)N(CCCO)[C@@H]3C(=O)N(c4ccc(Cl)cc4)CC=CC31O[C@@H]1/C=C\\CCCOC(=O)C12 (stereo not given in full)", -1.01),
    ("CCCCC=C[C@@H](NC(=O)CCc1ccccc1)c1ccccc1", 0.248),
    ("O=C(NCc1ccccc1)[C@]1(Cc2ccccc2)N=C(c2ccc(OCCCO)cc2)O[C@@H]1c1ccccc1", -0.565),
    ("O=C1c2ccccc2[C@](Cc2ccccc2I)(C(=O)NC2CC2)[C@H](c2ccc(CO)cc2)N1Cc1ccccc1Cl", 0.0978),
]

Cited source: PubChem BioAssay
